# Tested on: HepG2
# Protocol Description: cytotoxicity call (relative viability < 0.9)
# Details: 10 µM
Screen size: about 39,000 compounds; about 3,300 (8.5%) were called active. Many of the other results were omitted from the sample, so actives are more common in it than they were.
Outcome codes: YES for active, NO for inactive

Chem Smiles | Class
C[C@@H]1CN([C@@H](C)CO)C(=O)c2cc(NC(=O)CCCN(C)C)ccc2O[C@@H]1CN(C)Cc1ccccc1 | NO
C[C@@H]1CN([C@H](C)CO)C(=O)c2cc(NC(=O)CCCCCC(=O)Nc3ccccc3N)ccc2O[C@@H]1CN(C)Cc1ccccc1 | NO
C[C@H]1CN([C@@H](C)CO)C(=O)c2cc(NC(=O)CCCN(C)C)ccc2O[C@@H]1CN(C)Cc1ccccc1 | NO
CN(C)CCCNC(=O)C[C@H]1CC[C@H]2[C@@H](COc3ccc(NC(=O)c4ccc5c(c4)OCO5)cc3C(=O)N2C)O1 | NO
C[C@H]1[C@@H](O)[C@@H](C)\C=C/C=C\C=C/C=C\C=C/C=C\C=C/[C@@H](O[C@H]2O[C@H](C)[C@@H](O)[C@H](N)[C@@H]2O)C[C@H]2O[C@](O)(C[C@@H](O)C[C@@H](O)[C@@H](O)CC[C@@H](O)C[C@@H](O)CC(=O)O[C@H]1C)C[C@@H](O)[C@@H]2C(=O)O | NO
C[C@@H]1CCCCO[C@H](CN(C)S(=O)(=O)c2ccccc2)[C@H](C)CN([C@@H](C)CO)C(=O)c2cc(NC(=O)C3CCCCC3)ccc2O1 | NO
C[C@@H]1CCCCO[C@@H](CN(C)C(=O)C2CCCCC2)[C@@H](C)CN([C@@H](C)CO)C(=O)c2cc(NS(=O)(=O)c3ccc(F)cc3)ccc2O1 | NO
C[C@H]1CN([C@@H](C)CO)C(=O)c2cc(NC(=O)CCCCCC(=O)Nc3ccccc3N)ccc2O[C@H]1CN(C)Cc1ccc(Oc2ccccc2)cc1 | NO
O=C(CN1CCOCC1)NCC[C@H]1CC[C@@H](NC(=O)Cc2ccccn2)[C@@H](CO)O1 | NO
C[C@@H]1CN([C@@H](C)CO)C(=O)c2cc(NC(=O)CCCCCC(=O)Nc3ccccc3N)ccc2O[C@H]1CN(C)Cc1ccccc1 | YES
C[C@H]1CN([C@@H](C)CO)C(=O)c2cc(NC(=O)CCCCCC(=O)Nc3ccccc3N)ccc2O[C@@H]1CN(C)Cc1ccccc1 | YES
c1nc(N2CCOCC2)nc(N2CCOCC2)n1 | NO
NC(=O)N1Cc2nccn2C[C@H](Cn2cncn2)C1 | NO
C[C@H]1CN([C@@H](C)CO)C(=O)c2cc(NS(=O)(=O)c3cn(C)cn3)ccc2O[C@H]1CN(C)S(=O)(=O)c1ccccc1 | NO
CS(=O)(=O)O.OC(CCN1CCCCC1)(c1ccccc1)c1ccccc1 | NO
C[C@@H]1CCCCO[C@@H](CN(C)C(=O)Nc2ccccc2)[C@H](C)CN([C@@H](C)CO)C(=O)c2cc(NS(=O)(=O)c3ccccc3)ccc2O1 | NO
C[C@@H]1CN([C@H](C)CO)C(=O)c2cc(NC(=O)Cc3ccccc3)ccc2O[C@@H](C)CCCCO[C@@H]1CN(C)CC1CCCCC1 | NO
O=C(CCCCCCC(=O)Nc1ccccc1O)N/N=C/[C@H](O)[C@@H](O)[C@H](O[C@@H]1O[C@H](CO)[C@H](O)[C@H](O)[C@H]1O)[C@H](O)CO | NO
CC(C)NC(=O)N(C)C[C@H]1Oc2ccc(NS(=O)(=O)c3cccs3)cc2C(=O)N([C@H](C)CO)C[C@H]1C | NO
C[C@@H]1CN([C@@H](C)CO)C(=O)c2cc(NC(=O)CCCN(C)C)ccc2O[C@@H]1CN(C)Cc1ccc(Oc2ccccc2)cc1 | YES
CS(=O)(=O)N1CCc2c(-c3cnc(N)nc3)nc(N3CCOCC3)nc21 | YES
